Each recorded value in this set is attributed to PubChem BioAssay (EPA / NIEHS).

read-out: catalase (CAT), CAT (gene 847); assay: LTEA_HepaRG_CAT: Life Technologies and Expression Analysis (LTEA) Assay for catalase (CAT) using HepaRG (AID 2283452); details: mRNA level, 48 h; actives raise or lower the signal
Calls of active or inactive are those of the source. The calls were made as follows: active = hit-call score of the fitted dose curve at least 0.9, where 1 is the maximum; inactive = score below 0.9.
Classes to choose from: T (active), F (inactive)

In this assay, the call recorded for Cc1cc(O)ccc1Cl was what? F

Write down the call the test reported for this compound. Item: O=S(=O)(O)C(F)(F)C(F)(F)C(F)(F)C(F)(F)C(F)(F)C(F)(F)F T

Test call, this compound: CCOP(=S)(OCC)SCSC(C)(C)C F

Name the outcome recorded for CC#Cc1cc(C)nc(Nc2ccccc2)n1 in the assay. F

Please state the recorded outcome for this compound: Nc1ccc(-c2ccc(N)cc2)cc1 F

Dear all, I need the recorded test outcome for O=C(NC(=O)c1c(F)cccc1F)Nc1cc(Cl)c(OC(F)(F)C(F)F)c(Cl)c1 , thank you. F

Record request — test call for CCNc1nc(NC(C)C)nc(SC)n1 F

Hi team, can someone confirm the assay call for CCC(=O)O[C@H]1CC[C@H]2[C@@H]3CCC4=CC(=O)CC[C@]4(C)[C@H]3CC[C@]12C ? F

Which outcome was assigned to COS(=O)(=O)OC in this test? F

Please state the recorded outcome for this compound: CN(C)CCO F

Identify the outcome logged in this assay for the compound shown: CCSC(=O)N(CC)C1CCCCC1 F

Given Oc1ccc(C(c2ccc(O)cc2)(C(F)(F)F)C(F)(F)F)cc1 , state the outcome it received in this test. T

What did the test return for CCCCCCCCCC[N+](C)(C)CCCCCCCCCC ? F

Please indicate how the test categorized CCOC(=O)C(O)(c1ccc(Cl)cc1)c1ccc(Cl)cc1 . F

Kindly provide the recorded test outcome for the following compound: Clc1ccc(Cl)cc1 F

# lookup: test call for CCOCCOC(C)=O F

# outcome recorded in this test, key = O=NN(c1ccccc1)c1ccccc1 F

Test call, this compound: CCCN(CCC)N=O F

// return assay outcome for Cc1cc(-c2ccc(N)c(C)c2)ccc1N F

# lookup: test call for CCCCCCOC(=O)c1ccccc1C(=O)OCCCCCC F

Please share the test call associated with Clc1ccc(C(Cl)(Cl)Cl)cc1 . F

Which result was noted for this compound in the test: c1cc2ccc3cccc4ccc(c1)c2c34 F

Kindly provide the recorded test outcome for the following compound: CC(C)(c1ccccc1)c1ccc(O)cc1 F

Could you please tell me the result logged for Cc1ccccc1CO[C@@H]1C[C@@]2(C(C)C)CC[C@]1(C)O2 in this assay? F

Hello, I am checking results. What call was entered for Oc1ccc(Cl)cc1Cl ? F

What did the test return for Cc1ccccc1[N+](=O)[O-] ? F

Please share the test call associated with C[C@]12CCC(=O)C=C1CC[C@@H]1[C@@H]2CC[C@@]2(C)[C@H]1CC[C@]2(C)O . F

What is the recorded call for this compound in the test? C=CC(N)=O F

For ClC1=C(Cl)[C@]2(Cl)[C@@H]3[C@@H]4C[C@@H]([C@H]5O[C@@H]45)[C@@H]3[C@@]1(Cl)C2(Cl)Cl , what call appears in the results of this test? F

Could you kindly confirm the outcome this assay logged for O=C(O)C(F)(F)C(F)(F)C(F)(F)C(F)(F)C(F)(F)C(F)(F)C(F)(F)C(F)(F)F ? T

Each compound tested received a call. Report the one for CC(C)(O)C(=O)Nc1ccc([N+](=O)[O-])c(C(F)(F)F)c1 . F

For C1CC2OC2CC1C1CO1 (stereo not given) , which call appears in the assay record? F

Hey, what did the test say about O=C(O)C(F)(F)C(F)(F)C(F)(F)C(F)(F)C(F)(F)C(F)(F)C(F)(F)C(F)(F)C(F)(F)F ? T

Which outcome was assigned to COc1ccc(O)c(C(C)(C)C)c1 in this test? F

Dear colleague, could you share the recorded outcome for Cc1cc2c3c(c1)C(c1ccccc1)=N[C@@H](NC(=O)c1ccncc1)C(=O)N3CC2 when you have a moment? F

Returns: the outcome recorded for Clc1ccc(C(c2ccccc2Cl)C(Cl)(Cl)Cl)cc1 (stereo not given) in this assay. T

Each compound tested received a call. Report the one for Oc1c(Cl)c(Cl)c(Cl)c(Cl)c1Cl . T

Would you mind telling me which call this test gave CCCCCCCCCc1ccc(O)cc1 ? F

Hi team, can someone confirm the assay call for N#Cc1ccc(N(CC(N)=O)CC(F)(F)F)cc1C(F)(F)F ? F

Any idea what this test logged for CCC(C)(c1ccc(O)cc1)c1ccc(O)cc1 ? F
